Origin of measurements: patent US12187723B2

Provide the reported IC50 of each item.
# tested-system: UniProt Q9NYK1
# experiment: TLR7 inhibition reporter assay (HEK-Blue SEAP)
# setup-conditions: HEK-Blue cells overexpressing human TLR7, gardiquimod 7.5 μM, 22 hour incubation
Record the result as number plus unit.

{"columns": ["compound", "value"],
 "data": [
  ["Cc1cc2c(cc1-c1cc(C)c3ncnn3c1)[nH]c(=O)n2C1CCN(C)CC1 [Example 3]", "30.5 nM"]
]}

Items follow; give IC50 for each.
1. Cc1cc2c(cc1-c1cc(C)c3ncnn3c1)[nH]c(=O)n2[C@@H]1CCCN(CC2CCOC2)C1 (stereo partly shown) [Example 43]
2. CCc1cc2c(cc1-c1cc(OC)c3ncnn3c1)[nH]c(=O)n2[C@@H]1CCCN(CCOC)C1 [Example 227]
3. COCCN1CCC[C@H](n2c(=O)[nH]c3cc(-c4cc(OC)c5ncnn5c4)c(C(C)C)cc32)C1 [Example 221]

1: 88.5 nM; 2: 2.86 nM; 3: 11.3 nM

====

# tested-system: human TLR7 (Homo sapiens, UniProt Q9NYK1)
# Sequence (Q9NYK1 27-1049): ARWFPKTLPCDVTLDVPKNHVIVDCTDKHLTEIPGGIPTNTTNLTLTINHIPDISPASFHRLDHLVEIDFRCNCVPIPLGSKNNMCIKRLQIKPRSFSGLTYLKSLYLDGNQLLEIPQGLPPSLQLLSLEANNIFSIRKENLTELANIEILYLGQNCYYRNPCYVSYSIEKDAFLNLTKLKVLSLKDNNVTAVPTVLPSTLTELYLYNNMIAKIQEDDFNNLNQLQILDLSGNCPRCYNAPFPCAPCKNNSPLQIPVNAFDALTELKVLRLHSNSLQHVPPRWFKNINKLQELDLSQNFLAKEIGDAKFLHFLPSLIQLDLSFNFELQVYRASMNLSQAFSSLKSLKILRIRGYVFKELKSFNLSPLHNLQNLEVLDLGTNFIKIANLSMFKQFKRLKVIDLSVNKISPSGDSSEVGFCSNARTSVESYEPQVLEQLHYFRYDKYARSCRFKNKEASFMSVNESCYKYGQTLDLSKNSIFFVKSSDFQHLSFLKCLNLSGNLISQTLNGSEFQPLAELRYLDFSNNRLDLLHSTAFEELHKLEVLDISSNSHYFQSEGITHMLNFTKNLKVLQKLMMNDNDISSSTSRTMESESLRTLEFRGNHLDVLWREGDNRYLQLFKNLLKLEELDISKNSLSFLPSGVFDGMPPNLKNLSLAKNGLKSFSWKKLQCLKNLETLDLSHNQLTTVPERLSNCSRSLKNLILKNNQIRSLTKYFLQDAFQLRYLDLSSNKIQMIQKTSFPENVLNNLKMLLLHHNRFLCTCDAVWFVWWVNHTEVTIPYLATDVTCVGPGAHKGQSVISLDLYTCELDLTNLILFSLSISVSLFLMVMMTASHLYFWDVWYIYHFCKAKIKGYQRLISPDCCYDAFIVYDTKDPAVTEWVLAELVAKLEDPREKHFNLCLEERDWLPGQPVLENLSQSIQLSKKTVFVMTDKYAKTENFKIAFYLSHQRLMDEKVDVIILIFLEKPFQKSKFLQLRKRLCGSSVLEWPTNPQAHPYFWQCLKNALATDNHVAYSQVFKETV
# experiment: TLR7 inhibition reporter assay (HEK-Blue SEAP)
# setup-conditions: HEK-Blue cells overexpressing human TLR7, gardiquimod 7.5 μM, 22 hour incubation
# Description: TLR7/8/9 Inhibition Reporter Assays Briefly, cells are seeded into Greiner 384 well plates (15000 cells per well for TLR7, 20,000 for TLR8 and 25,000 for TLR9) and then treated with test compounds in DMSO to yield a final dose response concentration range of 0.05 nM-50 μM. […] The percent inhibition is determined as the % reduction in the HEK-Blue signal present in wells treated with agonist plus DMSO alone compared to wells treated with a known inhibitor.
pIC50: −log10 of the molar value.
Respond with Condition met for pIC50 values of 8 and above, Condition not met for values below.

{"columns": ["compound", "tested-system", "class-assignment"],
 "data": [
  ["COc1cc(-c2cc3[nH]c(=O)n(C4CCC(N5C[C@@H](F)[C@@H](F)C5)CC4)c3cc2C(C)C)cn2ncnc12 (single isomer, unassigned) [Example 292]", "human TLR7 (Homo sapiens, UniProt Q9NYK1)", "Condition met"],
  ["COc1cc(-c2cc3[nH]c(=O)n([C@H]4CCCN(C5COC5)C4)c3cc2C(C)C)cn2ncnc12 [Example 123]", "human TLR7 (Homo sapiens, UniProt Q9NYK1)", "Condition not met"],
  ["CCc1cc2c(cc1-c1cc(OC)c3ncnn3c1)[nH]c(=O)n2[C@@H]1CCCN(CC2CC2)C1 [Example 182]", "human TLR7 (Homo sapiens, UniProt Q9NYK1)", "Condition met"],
  ["Cc1c(-c2cc3[nH]c(=O)n([C@@H]4CCCN(C)C4)c3cc2C(C)C)cn2ncnc2c1C [Example 147]", "human TLR7 (Homo sapiens, UniProt Q9NYK1)", "Condition not met"]
]}

Attention now shifts to the item below.
Tell me whether pIC50 is at least 8 here: COc1cc(-c2cc3[nH]c(=O)n(C4CCC(N5CC(O)(C(F)(F)F)C5)CC4)c3cc2C(C)C)cn2ncnc12 (single isomer, unassigned) [Example 241]
Condition met

====

# tested-system: human TLR7 (Homo sapiens)
# experiment: TLR7 inhibition reporter assay (HEK-Blue SEAP)
# setup-conditions: HEK-Blue cells overexpressing human TLR7, gardiquimod 7.5 μM, 22 hour incubation
# Description: TLR7/8/9 Inhibition Reporter Assays Briefly, cells are seeded into Greiner 384 well plates (15000 cells per well for TLR7, 20,000 for TLR8 and 25,000 for TLR9) and then treated with test compounds in DMSO to yield a final dose response concentration range of 0.05 nM-50 μM. […] The percent inhibition is determined as the % reduction in the HEK-Blue signal present in wells treated with agonist plus DMSO alone compared to wells treated with a known inhibitor.
Provide the reported IC50 of each item.
Numbers only, in nM.

Below are worked cases with known answers.
{"columns": ["compound", "unit-info", "value"],
 "data": [
  ["CCN1CCC[C@@H](n2c(=O)[nH]c3cc(-c4cc(C)c5ncnn5c4)c(C)cc32)C1", "nM", 17],
  ["COc1cc(-c2cc3[nH]c(=O)n(C4CCN(CCS(C)(=O)=O)CC4)c3cc2C(C)C)cn2ncnc12", "nM", 82.4],
  ["COc1cc(-c2cc3[nH]c(=O)n([C@@H]4CCCN(C)C4)c3cc2C)cn2ncnc12", "nM", 32.5],
  ["COc1c(C)c(-c2cc3[nH]c(=O)n(C4CCC(N5CCC6(CC5)COC6)CC4)c3cc2C(C)C)cn2ncnc12 (single isomer, unassigned) [Example 267]", "nM", 2.1],
  ["CCc1cc2c(cc1-c1cc(OC)c3ncnn3c1)[nH]c(=O)n2[C@@H]1CCCN(C2CCOCC2)C1", "nM", 12.1],
  ["Cc1cc2c(cc1-c1cc(C)c3ncnn3c1)[nH]c(=O)n2[C@@H]1CCCN(Cc2cccnc2)C1", "nM", 172]
]}

The record that follows has no IC50 shown yet.
If you can, please state the reported IC50 value of COc1cc(-c2cc3[nH]c(=O)n(C4CCC(N5CCC(F)(F)C5)CC4)c3cc2C(C)C)cn2ncnc12 (single isomer, unassigned) [Example 294] .
1.2
